Assay: Plasma protein binding in rabbit
Type: ADME, cell-free, Oryctolagus cuniculus
Settings: read-out: PPB (converted)
measuredEndpoint: fraction unbound

> print(dat)
                                        smi  reported
1  NC(=O)CN1CCN(Cc2nc(-c3cn(CC4CCOCC4)c4c(Cl)cccc34)no2)CC1     0.037

----------
Experiment: Clearance in rat at 2 mg/kg, iv
Format: ADME, organism-based
Set-up: dose 2 mg/kg, route intravenous
Conditions: in vivo
measuredEndpoint: clearance (mL/min/kg)

> print(dat)
                                        smi  measuredendpoint  reported
1  NC(=O)CN1CCN(Cc2nc(-c3cn(CC4CCOCC4)c4c(Cl)cccc34)no2)CC1         clearance       9.5
